# pEC50 per entry
# System: HCV replicon (genotype 1b, Con1 isolate) in human hepatoma cell line Huh7
# Assay method text: HCV replicon assay (antiviral activity, anti-HCV core ELISA readout)
# Type: cell-based
# Condition context: Hepatitis C virus, Huh-7, 72 h, read-out: EC50, activity against HCV genotype 1b
Units for pEC50: none; it is -log10 of a concentration expressed in mol/L.

{"Compound": "O=C1OCCC1NP(=O)(OC[C@H]1O[C@@H](n2ccc(=O)[nH]c2=O)C(F)(F)[C@@H]1O)Oc1ccccc1 (stereo partly shown)", "Test result": 6.34}

// map CN1CCCC(NP(=O)(OC[C@H]2O[C@@H](n3ccc(N)nc3=O)C(F)(F)[C@@H]2O)Oc2ccccc2)C1=O (stereo partly shown) to recorded pEC50 (system: HCV replicon (genotype 1b, Con1 isolate) in human hepatoma cell line Huh7)
6.06

// map C[C@@]1(F)[C@H](O)[C@@H](COP(=O)(N[C@H]2CCOC2=O)Oc2ccccc2)O[C@H]1n1ccc(=O)[nH]c1=O (stereo partly shown) to recorded pEC50 (system: HCV replicon (genotype 1b, Con1 isolate) in human hepatoma cell line Huh7)
6.56

// map CC(C)OC(=O)[C@H](C)NP(=O)(OC[C@H]1O[C@@H](n2ccc(=O)[nH]c2=O)[C@](C)(F)[C@@H]1O)Oc1ccccc1 (stereo partly shown) [PSI-7851, reference compound] to recorded pEC50 (system: HCV replicon (genotype 1b, Con1 isolate) in human hepatoma cell line Huh7)
7.23

// map CN1CCC(NP(=O)(OC[C@H]2O[C@@H](n3ccc(=O)[nH]c3=O)C(F)(F)[C@@H]2O[Si](C)(C)C(C)(C)C)Oc2ccccc2)C1=O (stereo partly shown) to recorded pEC50 (system: HCV replicon (genotype 1b, Con1 isolate) in human hepatoma cell line Huh7)
7.39

// map CN1CCC(N[P@](=O)(OC[C@H]2O[C@@H](n3ccc(N)nc3=O)C(F)(F)[C@@H]2O)Oc2ccccc2)C1=O (stereo partly shown) to recorded pEC50 (system: HCV replicon (genotype 1b, Con1 isolate) in human hepatoma cell line Huh7)
6.66

// map `CC(=O)Nc1ccn([C@@H]2O[C@H](CO[P@@](=O)(N[C@H]3CCOC3=O)Oc3ccccc3)[C@@H](OC(C)=O)C2(F)F)c(=O)n1` to recorded pEC50 (system: HCV replicon (genotype 1b, Con1 isolate) in human hepatoma cell line Huh7)
7.38

These measurements were taken from patent US8889701B1.
